System: Plasmodium falciparum
Assay comment: Antiplasmodial activity against chloroquine-sensitive Plasmodium falciparum NF54
Format: functional, organism-based
Quantity measured: IC50

Known results for compounds:
# Compound, Tested system, Data value
measured = [
    ("O=C(O[C@@H]1Cc2c(O)cc(O)cc2O[C@H]1c1ccc(O)c(O)c1)c1cc(O)c(O)c(O)c1 [(-)-CATECHINGALLATE]", "Plasmodium falciparum", "3.2 µM"),
    ("COc1ccc2c(=O)cc(-c3ccccc3)oc2c1OC", "Plasmodium falciparum", "40.9 µM"),
    ("O=C(O[C@@H]1Cc2c(O)cc(O)cc2O[C@H]1c1cc(O)c(O)c(O)c1)c1cc(O)c(O)c(O)c1 [GALLOCATECHIN GALLATE]", "Plasmodium falciparum", "40.1 µM"),
    ("O=c1c(-c2ccc(O)cc2)coc2cc(O)cc(O)c12", "Plasmodium falciparum", "38.2 µM"),
    ("Oc1cc(O)c2c(c1)O[C@H](c1ccc(O)c(O)c1)[C@H](O)C2 [(-)-EPICATECHIN]", "Plasmodium falciparum", "> 150 µM"),
]

// IC50 lookup, key: O=c1c(O)c(-c2ccc(O)c(O)c2)oc2cc(O)ccc12 8.2 µM

// IC50 lookup, key: O=c1c(O)c(-c2ccc(O)cc2O)oc2cc(O)cc(O)c12 110 µM

// IC50 lookup, key: COc1cc(O)c2c(=O)c(OC)c(-c3ccc(OC)c(OC)c3)oc2c1 73.3 µM

// IC50 lookup, key: O=c1cc(-c2ccccc2)oc2ccccc12 60.8 µM

// IC50 lookup, key: O=c1cc(-c2ccccc2)oc2cc(O)ccc12 [7-HYDROXYFLAVONE] 65.5 µM

// IC50 lookup, key: O=c1cc(-c2ccc(O)c(O)c2)oc2cc(O)cc(O)c12 10.7 µM

----------
Tested system: 3-oxoacyl-acyl-carrier protein reductase (Plasmodium falciparum) (UniProt Q965D6)
Sequence (whole entry): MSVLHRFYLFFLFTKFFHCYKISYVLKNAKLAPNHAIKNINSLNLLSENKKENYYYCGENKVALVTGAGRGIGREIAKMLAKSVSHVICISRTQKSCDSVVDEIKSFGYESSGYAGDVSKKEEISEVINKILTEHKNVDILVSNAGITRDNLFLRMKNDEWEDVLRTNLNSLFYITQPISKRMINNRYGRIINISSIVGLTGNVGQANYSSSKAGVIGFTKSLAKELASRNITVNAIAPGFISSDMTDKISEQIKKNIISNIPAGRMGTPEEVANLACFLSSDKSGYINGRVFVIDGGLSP
Assay comment: Inhibition of FabG at 100 uM
Activity calls are given as the source filed them. No cut-off for these calls is given here.
Quantity measured: Activity

Known results for molecules:
# Line notation, Tested system, Activity
measured = [
    ("COc1ccc2c(=O)cc(-c3ccccc3)oc2c1OC", "3-oxoacyl-acyl-carrier protein reductase (Plasmodium falciparum) (UniProt Q965D6)", "inactive"),
    ("O=c1c(-c2ccc(O)cc2)coc2cc(O)ccc12", "3-oxoacyl-acyl-carrier protein reductase (Plasmodium falciparum) (UniProt Q965D6)", "inactive"),
    ("O=c1cc(-c2ccccc2)oc2ccccc12", "3-oxoacyl-acyl-carrier protein reductase (Plasmodium falciparum) (UniProt Q965D6)", "inactive"),
    ("O=c1c(-c2ccc(O)cc2)coc2cc(O)cc(O)c12", "3-oxoacyl-acyl-carrier protein reductase (Plasmodium falciparum) (UniProt Q965D6)", "inactive"),
]

// Activity lookup, key: O=c1c(O)c(-c2ccccc2)oc2ccc(O)cc12 inactive

----------
Tested on: Plasmodium falciparum
Assay comment: Antiplasmodial activity against chloroquine-sensitive Plasmodium falciparum NF54
Type: functional, organism-based
# pIC50 values compiled below
Keep it numeric: pIC50 is minus log10 of the concentration in mol/L.

Known results for molecules:
# Molecule, Tested system, pIC50
records = [
    ("O=C(O[C@@H]1Cc2c(O)cc(O)cc2O[C@@H]1c1ccc(O)c(O)c1)c1cc(O)c(O)c(O)c1 [EPICATECHIN GALLATE]", "Plasmodium falciparum", 4.40),
    ("O=c1cc(-c2ccc(O)cc2)oc2cc(O)cc(O)c12", "Plasmodium falciparum", 4.76),
    ("O=c1c(O)c(-c2ccc(O)c(O)c2)oc2cc(O)cc(O)c12", "Plasmodium falciparum", 5.00),
    ("COc1ccc(-c2cc(=O)c3c(O)c(O)c(OC)cc3o2)cc1", "Plasmodium falciparum", 5.05),
    ("O=c1c(-c2ccc(O)cc2)coc2cc(O)ccc12", "Plasmodium falciparum", 3.98),
    ("COc1ccc(-c2coc3cc(O)cc(O)c3c2=O)cc1", "Plasmodium falciparum", 4.46),
    ("COc1cc(O)c2c(=O)cc(-c3ccc(O)cc3)oc2c1", "Plasmodium falciparum", 3.95),
]

Now examine the next entry.
// pIC50 lookup, key: O=c1c(O)c(-c2ccccc2)oc2cc(O)ccc12 [3,7-DIHYDROXYFLAVONE] 4.31

----------
Tested system: 3-oxoacyl-acyl-carrier protein reductase (Plasmodium falciparum)
Sequence (whole entry): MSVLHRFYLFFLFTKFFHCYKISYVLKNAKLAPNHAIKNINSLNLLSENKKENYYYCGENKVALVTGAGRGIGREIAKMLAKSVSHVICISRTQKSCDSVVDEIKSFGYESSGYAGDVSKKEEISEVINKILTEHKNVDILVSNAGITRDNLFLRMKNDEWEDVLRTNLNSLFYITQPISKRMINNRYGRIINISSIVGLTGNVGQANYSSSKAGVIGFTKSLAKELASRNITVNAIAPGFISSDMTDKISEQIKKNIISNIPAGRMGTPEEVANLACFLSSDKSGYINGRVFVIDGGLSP
Assay comment: Inhibition of FabG at 100 uM
The source made the active and inactive calls. The calls are words filed in the database; no cut-off is given here.
Permitted responses: y for active, n for inactive

Previously resolved entries follow.
# Compound, Tested system, Class name
records = [
    ("COc1cc(O)c2c(=O)cc(-c3ccc(O)cc3)oc2c1", "3-oxoacyl-acyl-carrier protein reductase (Plasmodium falciparum)", "n"),
    ("COc1ccc(-c2cc(=O)c3c(O)c(O)c(OC)cc3o2)cc1", "3-oxoacyl-acyl-carrier protein reductase (Plasmodium falciparum)", "n"),
    ("O=c1cc(-c2ccccc2)oc2ccc(O)cc12 [6-HYDROXYFLAVONE]", "3-oxoacyl-acyl-carrier protein reductase (Plasmodium falciparum)", "n"),
    ("Oc1cc(O)c2c(c1)O[C@H](c1ccc(O)c(O)c1)[C@H](O)C2 [(-)-EPICATECHIN]", "3-oxoacyl-acyl-carrier protein reductase (Plasmodium falciparum)", "n"),
]

Just curious, what result did Oc1cc(O)c2c(c1)O[C@H](c1ccc(O)c(O)c1)[C@@H](O)C2 get here? n

Just curious, what result did O=C1C[C@@H](c2ccc(O)cc2)Oc2cc(O)cc(O)c21 get here? y

Just curious, what result did Oc1cc(O)c2c(c1)O[C@@H](c1cc(O)c(O)c(O)c1)[C@H](O)C2 [(-)-GALLOCATECHIN] get here? n

Just curious, what result did COc1cc2c(c(O)c1OC)C(=O)C[C@@H](c1ccc(O)cc1)O2 get here? n

Just curious, what result did COc1cc(O)c2c(=O)c(OC)c(-c3ccc(OC)c(OC)c3)oc2c1 get here? n

----------
# IC50 values compiled below
Tested system: 3-oxoacyl-acyl-carrier protein reductase (Plasmodium falciparum, UniProt Q965D6)
Sequence (Q965D6 whole entry): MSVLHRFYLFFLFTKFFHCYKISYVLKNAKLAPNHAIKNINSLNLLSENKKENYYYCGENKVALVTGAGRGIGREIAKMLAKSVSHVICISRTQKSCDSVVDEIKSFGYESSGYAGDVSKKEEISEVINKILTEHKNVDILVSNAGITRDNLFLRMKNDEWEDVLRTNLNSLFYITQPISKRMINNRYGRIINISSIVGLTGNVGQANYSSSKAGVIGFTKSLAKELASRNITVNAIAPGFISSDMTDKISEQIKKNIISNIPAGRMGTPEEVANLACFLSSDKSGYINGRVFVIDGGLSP
Numeric only. Scale: µM

// IC50 lookup, key: O=c1c(O)c(-c2ccc(O)cc2O)oc2cc(O)cc(O)c12 2.3

// IC50 lookup, key: O=c1c(O)c(-c2ccc(O)cc2)oc2cc(O)cc(O)c12 4

----------
Tested system: Fatty acid synthase (Plasmodium falciparum, UniProt Q965D7)
Sequence (Q965D7 whole entry): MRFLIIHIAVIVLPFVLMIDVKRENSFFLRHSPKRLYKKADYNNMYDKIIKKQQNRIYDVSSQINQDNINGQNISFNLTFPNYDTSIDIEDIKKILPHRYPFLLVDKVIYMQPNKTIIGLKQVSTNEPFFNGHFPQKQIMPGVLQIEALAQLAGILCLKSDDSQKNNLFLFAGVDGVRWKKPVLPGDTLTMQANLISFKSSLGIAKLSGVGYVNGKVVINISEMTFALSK
Quantity measured: pIC50
Keep it numeric: pIC50 is minus log10 of the concentration in mol/L.

Known results for compounds:
# Compound, Data value
rows = [
    ("O=c1c(O)c(-c2ccc(O)c(O)c2)oc2cc(O)cc(O)c12 [QUERCETIN]", 5.82),
    ("O=C(O[C@@H]1Cc2c(O)cc(O)cc2O[C@H]1c1ccc(O)c(O)c1)c1cc(O)c(O)c(O)c1 [(-)-CATECHINGALLATE]", 6.40),
    ("O=C(O[C@@H]1Cc2c(O)cc(O)cc2O[C@@H]1c1ccc(O)c(O)c1)c1cc(O)c(O)c(O)c1 [EPICATECHIN GALLATE]", 6.40),
    ("O=C(O[C@@H]1Cc2c(O)cc(O)cc2O[C@H]1c1cc(O)c(O)c(O)c1)c1cc(O)c(O)c(O)c1 [GALLOCATECHIN GALLATE]", 6.22),
    ("O=c1c(O)c(-c2cc(O)c(O)c(O)c2)oc2cc(O)cc(O)c12 [MYRICETIN]", 5.70),
    ("O=c1c(O)c(-c2ccc(O)c(O)c2)oc2cc(O)ccc12 [FISETIN]", 5.70),
    ("O=c1c(O)c(-c2ccc(O)cc2O)oc2cc(O)cc(O)c12 [MORIN]", 5.10),
    ("O=c1c(-c2ccc(O)cc2)coc2cc(O)cc(O)c12 [GENISTEIN]", 5.15),
]

Query for Fatty acid synthase (Plasmodium falciparum, UniProt Q965D7): what pIC50 does the record show for O=c1cc(-c2ccccc2)oc2ccc(O)cc12 [6-HYDROXYFLAVONE] ? 4.52
